Sourced from patent US11254654B2

- System: HP1-mediated gene repression
- Experiment: UNC2524 structure-activity relationship assay, CiA:Oct4 N118/N163 flow cytometry
- Format: cell-based, mouse
- Experimental conditions: 10 μM, 48 hrs, + 6 nM rapamycin
Structures can show the parent of a compound that is named as a salt.
Outcome measure: % inhibition compared with parent compound 1

>>> result("CCCCCCNc1nc(N[C@H]2CCCNC2)c2cc(OC)c(OC)cc2n1")
"decrease in inhibition"
>>> result("COc1cc2nc(N3CCCC3)nc(N[C@@H]3CCCN(C(=O)OC(C)(C)C)C3)c2cc1OC")
"decrease in inhibition"
>>> result("C=CCCCN1CCC[C@H](Nc2nc(N3CCCC3)nc3cc(OC)c(OC)cc23)C1 [compound 5, Trifluoroacetic Acid Salt]")
"decrease in inhibition"
